Numbers sourced from patent US20260151494A1.

In this section, each of the binders is paired with its reported RLU.
# Subject Of Test: T1, human CD71 extracellular domain (human, UniProt P02786 89-760)
# T1 construct: also called hCD71; CD71-ECD
# Test Protocol: primary ELISA; also: test concentration or dose not given here
Readout: RLU (RLU)

• CD71-binding FN3 domain SEQ ID NO 412 (designed binder) MLPAPKNLVVSRVTEDSARLSWTAPDAAFDSFFIGYLEPQPPGEAIGLLVPGSERSYDLTGLKPGTEYNVTIQGVKGGFPSHPLLAVFTT = 4.37e+06
• CD71-binding FN3 domain SEQ ID NO 433 (designed binder) MLPAPKNLVVSRVTEDSARLSWTAPDAAFDSFFIGYLEPQPPGEAIALYVPGSERSYDLTGLKPGTEYNVTIQGVKGGFPSLPLEANFTT = 3.26e+06
• CD71-binding FN3 domain SEQ ID NO 376 (designed binder) MLPAPKNLVVSRVTEDSARLSWTAPDAAFDSFFIGYLEPQPPGEAIALLVPGSERSYDLTGLKPGTEYNVTIQGVKGGFPSNPLEAKFTT = 5.96e+06
• CD71-binding FN3 domain SEQ ID NO 439 (designed binder) MLPAPKNLVVSRVTEDSARLSWTAPDAAFDSFFIGYLEPQPPGEAIHLFVPGSERSYDLTGLKPGTEYNVTIQGVKGGFPSVPLNAYFTT = 5.47e+06
